# System tested: T1, 017-mut1 peptide (…)/HLA-A*02:01 complex on T2 cells (human)
# T1 construct: Alanine mutant of Foxp3-7 at position 1, pulsed onto T2 cells; also called EXT017-mut1
# Procedure summary: flow cytometry, phage on peptide-loaded T2 cells
Parameter: MFI
Answers are plain numbers.

Prompt: # query: MFI of entry EXT017-53 scFv phage clone (scFv, full-length scFv with His+HA tags; also called EXT017-53 phage) scFv: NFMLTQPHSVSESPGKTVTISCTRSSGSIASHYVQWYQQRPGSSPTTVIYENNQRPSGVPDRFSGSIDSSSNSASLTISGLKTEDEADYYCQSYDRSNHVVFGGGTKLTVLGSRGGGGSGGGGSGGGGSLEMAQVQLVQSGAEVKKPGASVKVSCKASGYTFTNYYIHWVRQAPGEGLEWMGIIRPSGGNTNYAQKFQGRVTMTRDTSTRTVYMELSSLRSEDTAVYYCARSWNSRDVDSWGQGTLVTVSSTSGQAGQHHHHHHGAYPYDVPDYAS
Response: 1100
